- assay.explanation: reversal of MRP1-mediated doxorubicin resistance, pilot screen, H69AR cells, doxorubicin co-treatment (AID 601)
- measurement.setup: H69AR cells + 2 uM doxorubicin, CellTiter-Glo, 72 h; at 10 µM; stronger effect = higher value
observable: differential viability (reversal) (%)
The figure you give is taken to be in %; do not add the unit.

{"compound": "CC(C)COc1nc2ccccc2nc1C(C#N)C(=O)NC1CCCCC1 (stereo unspecified)", "unit.name": "%", "differential viability (reversal)": -20.3}

Q. For the compound CCCOc1ccc(N2C(=O)C3ON(c4ccccc4)C(c4ccc(O)c(OC)c4)C3C2=O)cc1 (stereo unspecified) , what differential viability (reversal) is on record?
A. 10.6

Q. Dear colleague, I am looking for the recorded differential viability (reversal) of the following compound: `CCOC(=O)c1ccc(NC(=O)CCc2nc(-c3cccc(C)c3)no2)cc1`
A. -12.8

Q. # get_value(readout='differential viability (reversal)', item= `CCCCCn1c(CN2CCN(C)CC2)nc2c1c(=O)n(C)c(=O)n2C` )
A. -6.67

Q. Looking for the measured differential viability (reversal) of `Cc1cn([C@H]2C[C@H](N=[N+]=[N-])[C@@H](CO)O2)c(=O)[nH]c1=O` , can you help?
A. 4.1

Q. What value of measured differential viability (reversal) is listed for OC(CNCC1COc2ccccc2O1)COCc1cccs1 (stereo unspecified) ?
A. 0.95

###

- assay.explanation: reversal of MRP1-mediated doxorubicin resistance, pilot screen, H69AR cells, doxorubicin co-treatment (AID 601)
- measurement.setup: H69AR cells + 2 uM doxorubicin, CellTiter-Glo, 72 h; measured here: viability with 2 uM doxorubicin; at 10 µM; stronger effect = lower value
Could you please mark MET for values of viability below 90% and NOT MET for values at or above it?

{"compound": "O=C1CC(c2ccc(F)c(Br)c2)C2=C(CCCC2=O)N1 (stereo unspecified)", "class.name": "NOT MET"}
{"compound": "CC(C)Cn1c(N)c(C(=O)COC(=O)c2ccc3c(c2)OCCO3)c(=O)n(C)c1=O", "class.name": "NOT MET"}
{"compound": "CC1/C(=N/O)C(CN(C)C)C2CC1C2(C)C (stereo unspecified)", "class.name": "MET"}

Q. Identify whether the compound `Cc1ccc(-n2ncc3c(=O)n(CC(=O)NC4CCCCC4)cnc32)cc1C` records viability below 90%.
A. MET

Q. viability strictly < 90% for this compound? `CC(=O)c1cccc(S(=O)(=O)N2CCC(n3nnc4cc(F)ccc43)CC2)c1`
A. MET

Q. Take the compound `COc1ccc(-n2c(Cc3cccn3C)nnc2SCC(=O)Nc2cccc(OC)c2)cc1` and say whether its viability is less than 90%.
A. NOT MET

Q. Lab note: confirm whether the reported viability for this compound is below 90%, equality not counting. compound: `COc1ccc(-c2cc(C(=O)N3CCN(Cc4ccccc4)CC3)no2)cc1OC`
A. MET

Q. For this compound, is viability lower than 90%? `O=C(CCN1CCc2ccccc2C1)Nc1ccc2c(c1)OCO2`
A. NOT MET

###

- assay.explanation: growth suppression of yeast trafficking mutant, preliminary HTS, modulators of trafficking downstream of Golgi apparatus project, 1536-format plate, OD 615 nm (AID 637)
- measurement.setup: yeast transport mutant growth, absorbance 615 nm, 18 h; stronger effect = higher value
Calls of active or inactive are those of the source. Cut-off read from the data, not from the text of the source: active = inhibition above about 30%; inactive = the rest.
The following compounds are shown together with reported inhibition values.

{"compound": "CN(C)S(=O)(=O)c1ccc(/C(O)=C2/C(=O)C(=O)N(CCN3CCCCC3)C2c2cccnc2)cc1 (stereo not given)", "val": "11.3% (inactive)"}

Q. Any idea what its inhibition is? The compound is `O=C(O)c1cc(-c2ccccc2Cl)n[nH]1`
A. 2.38% (inactive)

Q. Quick one: inhibition for `CCOC(=O)CNC(=O)Nc1nnc(-c2ccc(OCC)cc2)o1` ?
A. -3.02% (inactive)

Q. // query inhibition value for entry `c1ccc(-c2noc(C34CC5CC(CC(C5)C3)C4)n2)nc1`
A. 2.13% (inactive)

Q. Requested read-out: inhibition. Entry: `COc1ccc(S(=O)(=O)N2CCC(C(=O)c3ccc4c(c3)OCCO4)CC2)cc1`
A. -8.69% (inactive)

Q. Need inhibition, item CCN(CC)CCN1C(=O)C(=O)/C(=C(/O)c2c(C)[nH]c(C(=O)OC)c2C)C1c1ccccc1OC (stereo not given)
A. -4.5% (inactive)

Q. Sample `CC(C)(C)C(=O)CNS(=O)(=O)c1ccc(S(=O)(=O)NC2CCCC2)cc1` — what was its inhibition?
A. 1.9% (inactive)

Q. Which value of inhibition has been reported for `COc1ccc(-c2cc(C(=O)N3CCN(Cc4ccccc4)CC3)no2)cc1OC` in the records?
A. 9% (inactive)

Q. Which measured inhibition value corresponds to `O=C(C1CCN(c2nnnn2-c2ccccc2)CC1)N1CCN(c2ccccc2)CC1` ?
A. 5.08% (inactive)

Q. Quick one: inhibition for `CCOC(=O)CSc1nc(N)c2c3c(sc2n1)CCCC3` ?
A. 2.58% (inactive)

###

- assay.explanation: 384-well plate pilot, post-Golgi transport modulator project, inhibition of yeast transport mutant growth (AID 636)
- measurement.setup: absorbance 615 nm, about 18 h, stronger effect = higher value
Here, each record is paired with measured inhibition data.
Field: numeric (%). Do not append units.

{"compound": "CCOC(=O)c1nnn(-c2nonc2N)c1CN1CCc2ccccc2C1", "val": -0.13}

Q. What does the record list as inhibition for `CCc1ccc(CN(C)CCc2ccccn2)cc1` ?
A. -5.62

Q. Reported inhibition for COC(=O)C(C)Sc1nc2c(c(=O)n(C)c(=O)n2C)n1Cc1cccc(C)c1 (configuration not stated) : what is it?
A. -0.26

Q. Please look up its inhibition: COC(=O)c1ccccc1NC(=O)CC(NCc1ccccc1)C(=O)O (configuration not stated)
A. -2.11

Q. Which value of inhibition has been reported for `CC(=O)Nc1ccc(S(=O)(=O)n2nc(C)cc2C)cc1` in the records?
A. -6.45

Q. Which measured inhibition value corresponds to `Cc1cc2ccccn2c1C(=O)c1ccncc1` ?
A. -3.77

###

- assay.explanation: RAM signaling pathway blockade in yeast – S. cerevisiae, Pdr1DBD-CYC8 efflux-inhibited sensitized strain, primary screen (AID 1298);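 further: 0% = DMSO untreated cells without growth and 100% = 10 µM 1-NA-PP1 full growth; higher means more yeast growth rescued from 5-FOA killing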
- measurement.setup: S. cerevisiae cbk1-as DSE1-URA3 strain, 5-FOA growth OD615, 2 d; at 50 µM; stronger effect = higher value
observable: RAM network inhibition (%)
Output spec: scalar in %, unitless text.

Examples from the recorded data:
{"compound": "CCOC(=O)c1ccccc1NC(=O)CC1Nc2ccccc2NC1=O (stereo unspecified)", "RAM network inhibition [%]": 6.39}
{"compound": "O=S(=O)(c1cccc(-c2nnc(-c3cccnc3)o2)c1)N1CCCCC1", "RAM network inhibition [%]": 2.99}
{"compound": "COc1ccc(S(=O)(=O)N2CCC(C(=O)Nc3cccc(Cl)c3)CC2)cc1OC", "RAM network inhibition [%]": 1.52}
{"compound": "O=C(Oc1ccc2c(=O)c(Cl)coc2c1)c1ccncc1", "RAM network inhibition [%]": -0.99}
{"compound": "O=C(COc1ccc2c3c(c(=O)oc2c1)CCC3)c1ccc2c(c1)OCO2", "RAM network inhibition [%]": 7.83}

Now turn to the next compound.
Q. Would you mind telling me what RAM network inhibition value was observed for CCOC(=O)C1CCCN(C(=O)N2CCOCC2)C1 (stereo unspecified) ?
A. 0.21

###

- assay.explanation: RAM signaling pathway blockade in yeast – S. cerevisiae, Pdr1DBD-CYC8 efflux-inhibited sensitized strain, primary screen (AID 1298);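 further: 0% = DMSO untreated cells without growth and 100% = 10 µM 1-NA-PP1 full growth; higher means more yeast growth rescued from 5-FOA killing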
- measurement.setup: S. cerevisiae cbk1-as DSE1-URA3 strain, 5-FOA growth OD615, 2 d; at 50 µM; stronger effect = higher value
observable: RAM network inhibition (%)
Report the figure in % without appending any unit label.

Some molecules with recorded RAM network inhibition:
{"molecule": "O=C(CSCc1ccc(Cl)cc1)NCC1CCCO1 (stereo unspecified)", "val": 3.99}
{"molecule": "COC(=O)C1=C(C)NC2=C(C(=O)CC(c3cccs3)C2)C1c1ccsc1 (stereo unspecified)", "val": 4.86}
{"molecule": "CCC(c1ccccc1)c1nc(-c2ccccn2)no1 (stereo unspecified)", "val": 3.77}
{"molecule": "CCC(C#CCN1CCCCC1)(CC)OCCC#N", "val": 4.07}
{"molecule": "CC1(C)Cc2c(sc3c2c(=N)n(Cc2ccco2)c(=O)n3Cc2ccc(F)cc2)CO1", "val": 6.85}

Q. RAM network inhibition for `CCOC(=O)N1CCc2c(sc(NC(=O)c3ccc(S(=O)(=O)N4CCCC4)cc3)c2C#N)C1` ?
A. 5.32

Q. Report RAM network inhibition for `O=S(=O)(c1cccs1)n1nnc2ccccc21` please.
A. 0.48

Q. Name the reported RAM network inhibition value associated with the molecule `CCOc1ccc(-n2c(SCC(=O)Nc3nccs3)nc3c(c2=O)SCC3)cc1`
A. 4.65

Q. Quick one: RAM network inhibition for `Cc1ccccc1CN1CCN(CC(=O)NCc2ccccn2)C1=O` ?
A. 1.55

Q. // RAM network inhibition lookup, key: Cc1cc(NC(=O)CC(CN(C)S(=O)(=O)c2ccccc2)c2ccccc2)no1 (stereo unspecified)
A. 3.14

Q. Would you kindly share the measured RAM network inhibition for `O=C(Cn1cc2c(n1)CCCCC2)NC1CCCCCC1` ?
A. 0.21

Q. Fill in the blank: the reported RAM network inhibition of `COC(=O)c1ccc(CSc2nc3c(c(=O)n2-c2ccc(Br)cc2)SCC3)o1` is ____.
A. 7.53

Q. For the molecule shown here, `O=C(Cn1cc2c(n1)CCCC2)NCCCN1CCN(c2ccccc2F)CC1` , give the reported RAM network inhibition.
A. 5.8

Q. Please give the measured RAM network inhibition for this molecule: Cc1ccc(CNC(=O)C2CCCN(c3nc4ccccc4o3)C2)cc1 (stereo unspecified)
A. 5.43

Q. Consider the molecule Nc1nc2n(n1)C(c1ccco1)CC(c1ccc(F)cc1)N2 (stereo unspecified) and give its measured RAM network inhibition.
A. 4.49

Q. Would you kindly share the measured RAM network inhibition for `CNC(=O)c1ccsc1NC(=O)c1ccc(Cl)s1` ?
A. 2.36

Q. Please look up its RAM network inhibition: `COC(=O)C(C(=O)OC)C(C(=O)OC)C(C(=O)OC)C(=O)OC`
A. -1.61

FYI, the data here is from PubChem BioAssay.
